Test system: SEM cells
Assay: AUC of viability dose-response curve (% viability x log10 dose units); higher = less sensitive
Conditions: RPMI 5 mM glucose + 10% dialyzed FBS; 48 h
Mark label 1 for AUC of viability dose-response curve under 400, label 0 if at or over.

>>> assigned_label("Nc1nccc(-c2ccc3noc(-c4ccc(Cl)cc4)c3c2)n1")
"label 0"
>>> assigned_label("C=C1CCC2[C@](C)(CO)C(O)CC[C@]2(C)C1C/C=C1/C(=O)OCC1O (stereo not given in full)")
"label 0"
>>> assigned_label("COc1cccc(N(C)C(=S)Oc2ccc3c(c2)CCCC3)n1")
"label 0"
>>> assigned_label("CC1(C)[C@@H](O)CC[C@@]2(C)[C@H]1CC[C@]3(C)[C@@H]2C(=O)\\C=C/4[C@@H]5C[C@](C)(CC[C@]5(C)CC[C@@]34C)C(O)=O")
"label 0"
>>> assigned_label("CN(C)C(=O)[C@H](O)[C@H](Cc1ccccc1)NC(=O)c1cc2cc(Cl)ccc2[nH]1")
"label 1"
>>> assigned_label("COC1=CC=C(C=C1)C/2=C(OC3O[C@@H](C)[C@H](O)[C@@H](O)[C@H]3O)/C(=O)C4=C(O2)C(=C(OC5O[C@H](CO)[C@@H](O)[C@H](O)[C@H]5O)C=C4O)CC=C(C)C (stereo not given in full)")
"label 0"
>>> assigned_label("O=C(NOCC1CC1)c1ccc(F)c(F)c1Nc1ccc(I)cc1Cl")
"label 0"
>>> assigned_label("OC1=C(Cl)C=C(N\\C2=C(\\C(=O)NC2=O)C3=C(C=CC=C3)[N+]([O-])=O)C=C1")
"label 0"

--- query ---
[ask] Just wondering, is AUC of viability dose-response curve of CCOc1cc(C(=O)Nc2ccc(Cl)c(-c3nc4ccccc4[nH]3)c2)cc(OCC)c1OCC below 400?
[reply] label 1
